Every entry's value here was drawn from patent US20190315854A1.

Molecular target: T1, sIL-6R (soluble IL-6 receptor; SBH Sciences) (human, UniProt P08887 20-365)
T1 construct: also called human IL-6R
T1 sequence: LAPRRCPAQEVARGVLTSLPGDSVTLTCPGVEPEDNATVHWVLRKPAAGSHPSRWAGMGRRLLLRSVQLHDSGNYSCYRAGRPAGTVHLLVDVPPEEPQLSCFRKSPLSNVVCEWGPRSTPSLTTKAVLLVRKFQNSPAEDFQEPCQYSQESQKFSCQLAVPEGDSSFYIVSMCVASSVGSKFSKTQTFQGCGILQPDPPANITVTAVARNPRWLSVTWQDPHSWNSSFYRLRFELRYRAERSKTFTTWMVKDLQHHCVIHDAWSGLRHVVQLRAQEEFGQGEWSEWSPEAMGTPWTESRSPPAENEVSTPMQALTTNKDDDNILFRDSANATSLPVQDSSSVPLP
Assay: SPR (BIAcore 3000), antibody on chip, sIL-6R analyte, 25 C
Entries annotated with measured Kd
Your answer is read as nM, so omit the unit and give the number.

These recorded examples may help you get a feel for the data.
BINDER | NUMERIC_RESULT
249# (antibody, human IgG1, kappa, V domains shown) VH: QVQLQESGPGLVRPSQTLSLTCTVSGYSITSDHAWSWVRQPPGRGLEWIGYISYSGMTTYNPSLKSRVTMLRDTSKNQFSLRLSSVTAADTAVYYCARCLARATAMDYWGQGSLVTVSS VL: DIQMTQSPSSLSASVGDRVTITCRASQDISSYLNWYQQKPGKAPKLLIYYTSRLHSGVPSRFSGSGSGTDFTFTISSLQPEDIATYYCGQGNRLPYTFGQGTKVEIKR | 0.241
247# (antibody, human IgG1, kappa, V domains shown, also called Sample # 247) VH: QVQLQESGPGLVRPSQTLSLTCTVSGYSITSDHAWSWVRQPPGRGLEWIGYISYSGMTTYNPSLKSRVTMLRDTSKNQFSLRLSSVTAADTAVYYCARCLARMTAMDYWGQGSLVTVSS VL: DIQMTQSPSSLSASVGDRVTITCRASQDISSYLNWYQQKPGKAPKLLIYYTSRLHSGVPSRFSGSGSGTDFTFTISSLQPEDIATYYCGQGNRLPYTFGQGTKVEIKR | 0.212

Q: Look up and report measured Kd for this entry: 248# (antibody, human IgG1, kappa, V domains shown, also called Sample # 248) VH: QVQLQESGPGLVRPSQTLSLTCTVSGYSITSDHAWSWVRQPPGRGLEWIGYISYSGMITYNPSLKSRVTMLRDTSKNQFSLRLSSVTAADTAVYYCARTLARMTAIDFWGQGSLVTVSS VL: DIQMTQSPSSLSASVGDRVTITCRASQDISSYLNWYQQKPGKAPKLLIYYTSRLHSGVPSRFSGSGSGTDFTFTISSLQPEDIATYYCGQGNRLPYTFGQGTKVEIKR
Result: 0.189
